Reference source: PubChem BioAssay (NCI)

- assayName: NCI Yeast Anticancer Drug Screen. Data for the rad52 strain (AID 147)
- statedConditions: S. cerevisiae rad52 mutant growth inhibition; at 33.0 µM; active compounds read high
This is part of a sample that, as a whole, favours compounds with a hit. Of some 79,000 tested, about 15% had one in any assay.
Output T for growth inhibition not less than 60%; output F otherwise.

COc1cc(O)c2c(O)c3c(c4c2c1[C@]1(C4)C(C)=CCCC1(C)C)[C@H](O)[C@@]1(O)CC(=O)C(C(N)=O)=C(O)[C@@]1(O)C3=O	T
O=C1C=C(CN(CCCl)CCCl)C(=O)C=C1CN(CCCl)CCCl	F
O=Cc1ccc(C(F)(F)F)cc1.[C-]#[O+].[C-]#[O+].[C-]#[O+].[Cr]	T
CC1CN1C1=C(Cl)C(=O)C(N2CC2C)=C(Cl)C1=O (stereo not given)	T
Cc1ccc2c(c1N)C(=O)c1ccccc1C2=O	T
O=C(O)C1C2CCC(C2)C1c1ccccc1 (stereo not given)	F
OC1CCCC2CCC[N-]C12.OC1CCCC2CCC[N-]C12.[O]=[V][OH] (stereo not given)	T
O=P(CCCCP(=O)(c1ccccc1)c1ccccc1)(c1ccccc1)c1ccccc1.[Cl][Sn]([Cl])([c]1ccccc1)[c]1ccccc1	T
Cc1c([N+](=O)[O-])oc2ccc3ccccc3c12	T
Cc1ccc2nc3sc(=O)sc3nc2c1	T
O=C1c2ccccc2C(=O)C(Cl)C1Cl (stereo not given)	T
C/C(=N\NC(N)=O)C(CN1CCOCC1)C(c1ccccc1)c1c(O)c2ccccc2oc1=O (stereo not given)	F
COc1cc(C2c3cc4c(cc3[C@@H](Nc3ccc(N)cc3)C3COC(=O)[C@H]23)OCO4)cc(OC)c1O (stereo not given in full)	T
C[CH2][Sn]1([CH2]C)[O]C2C(O)OC(CO)C(O)C2[O]1 (stereo not given)	F
Oc1cccnc1[Se]	T
O=[N+]([O-])c1ccc(C=Cc2ccccc2)cc1.[C-]#[O+].[C-]#[O+].[C-]#[O+].[Cr]	T
CC1CC(Br)C(=O)O1 (stereo not given)	T
C[C@]12CCc3nonc3C1CC[C@@H]1C2CC[C@]2(C)C(=O)CCC12 (stereo not given in full)	F
O=C1C=CC(=O)C1(Br)Br	T
O=S(=O)(O)c1ccc(Cl)cc1.[Cd]	F
NCCc1ccc(OCc2ccccc2)c(OCc2ccccc2)c1	T
CCOC(=O)C1([Se]c2ccccc2)CCCC1=O (stereo not given)	F
NNc1ccccc1Cl	T
CC1(C)N=C(N)N=C(N)N1c1cccc(N)c1.[Sn]	F
CC1=C[C@H]2O[C@@H]3C[C@H]4OC(=O)/C=C\C=C\C(C(C)O)OCC(O)C(C)CC(=O)OC[C@@]2(C[C@@H]1O)[C@]4(C)[C@@]31CO1 (stereo not given in full)	T
O=S(=O)(O)/C(=C\c1ccccc1)c1ccccc1 (tested in a mixture with another compound)	F
c1cc2c(cc1C1OC[C@H]3[C@@H](c4ccc5c(c4)OCO5)OC[C@@H]13)OCO2 (stereo not given in full)	F
CCC1(OC(=O)CN)C(=O)OCc2c1cc1n(c2=O)Cc2cc3ccccc3nc2-1 (stereo not given)	T
O=C(COc1ccc(Cl)cc1Cl)NO	F
CCc1cccc(C(C)C)c1NC1=C([n+]2ccc(C)cc2)C(=O)c2ccccc2C1=O	F
CCCCCNC(=O)c1c(O)[nH]c(=S)[nH]c1=O	T
COC(=O)C1=C(C(=O)OC)SC2(S1)C(C(=O)OC)=C(C(=O)OC)Sc1c2ssc1=O	T
C[N+]1(CCCl)CC[N+](C)(CCCl)CC1 (stereo not given)	F
C=CC[N+]12CN3CN(CN(C3)C1)C2	F
CC[C@@]1(O)C(=O)OCc2c1cc1n(c2=O)Cc2cc3ccccc3nc2-1	T
CC(=O)O/C(=C1\C[C@H]2[C@@H]3CC=C4C[C@@H](OC(C)=O)CC[C@]4(C)[C@H]3CC[C@]2(C)C1=O)C(F)(F)F	F
Cc1c(N)nc([C@H](CC(N)=O)NC[C@H](N)C(N)=O)nc1C(=O)N[C@H](C(=O)N[C@H](C)[C@@H](O)[C@H](C)C(=O)N[C@H](C(=O)NCCc1nc(-c2nc(C(=O)NCCC[S+](C)C)cs2)cs1)[C@@H](C)O)C(OC1OC(CO)C(O)C(O)C1OC1OC(CO)C(O)C(OC(N)=O)C1O)c1cnc[nH]1 (stereo not given in full)	T
COc1ccc(/C=C(/C)[N+](=O)[O-])cc1	T
O=[N+]([O-])O.[NH-]C1CCCCC1[NH-].[NH-]C1CCCCC1[NH-].[NH-]C1CCCCC1[NH-].[OH-].[OH-].[OH-].[Pt+4].[Pt+4].[Pt+4] (stereo not given)	F
O=P(Oc1ccc(Cl)cc1)(Oc1ccc(Cl)cc1)N1CC1	F
